Items are presented alongside their recorded inhibition.
# SYSTEM_NAME: Disintegrin and metalloproteinase domain-containing protein 10 (Homo sapiens)
# ASSAY_DETAILS: blockers of ADAM10 peptide cleavage – biochemical, QFRET, HTS, primary screen (AID 720582);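 note: 0% = DMSO wells while the 100% control is not disclosed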
# TEST_CONDITIONS: recombinant ADAM10, EDANS/DABCYL FRET peptide cleavage, 3 h; at 7 µM; active compounds read high
Among all 370,000 compounds or so, about 2,300 (0.62%) were called active. Shown is part of a subset that was picked to be rich in actives.

| MOLECULE | inhibition [%] |
| --- | --- |
| Cc1ccc(C2CCN(C(=S)Nc3cccc(Cl)c3)C2)cc1 (stereo not drawn) | 8.61 |
| CCC(C(=O)Nc1ccc(C(C)C)cc1)c1ccccc1 (stereo not drawn) | 5.96 |
| CCC(=O)Nc1ccc2c(c1)C(=O)N(C)[C@H]1CC[C@H](CC(=O)NCCOC)O[C@@H]1CO2 | 2.62 |
| COc1cc(SC)ccc1C(=O)Nc1nc(C)cs1 | -7.24 |
| COc1cc(Cl)c(S(=O)(=O)N2CCN(Cc3ccc4c(c3)OCO4)CC2)cc1Cl | 45.9 |
| c1csc(-c2nnc(SCc3nc4ccccc4[nH]3)o2)c1 | -40.8 |
| O=C(c1ccccc1)c1ccc(-c2ccccc2C(=O)NC2CCCCN(Cc3ccc(Cl)cc3)C2=O)cc1 (stereo not drawn) | 0.76 |
| CCC(C)(C)c1ccc(Oc2ccc(NC(=O)COC(=O)C3=COCCO3)cc2)cc1 | 35.7 |
| CC(C)CNc1cccc2c1S(=O)(=O)N(Cc1cn(Cc3ccccc3C(F)(F)F)nn1)Cc1ccccc1O2 | -26.5 |
| CC(C)(C)OC(=O)NCc1cc(F)ccc1/C=C/S(=O)(=O)NCCc1ccccc1 | 11.5 |
| CCCCC(=O)N[C@@H]1CC[C@@]23CCCN2C(=O)CCC[C@H]3[C@H]1C | -8.02 |
| Cc1cccc(C(=O)Nc2c(-c3ccc(F)cc3)nc3ncccn23)c1 | -329 |
| COc1ccc(NC(=S)NCC2CCN(c3ccc(OC)cc3)C2)cc1 (stereo not drawn) | 7.62 |
| Cn1c(CNc2nc(-c3ccccc3)cs2)nnc1SCC(=O)c1ccccc1 | 35 |
| C#CCN(C[C@@H]1[C@@H](OC(=O)NC2CC2)[C@@H](OC(=O)NC2CC2)Cn2c(=O)ccc(=O)n21)S(=O)(=O)c1ccc(C)cc1 | -5.52 |
| COc1ccc(-n2c(COc3ccccc3)nnc2SCC(=O)Nc2ccc3c(c2)OCO3)cc1 | 2.97 |
| CC(C)CSc1nnc(-c2cccnc2)n1Cc1ccccc1 | -2.15 |
| COc1ccc(-c2cc(C(=O)N3CCN(Cc4ccc5c(c4)OCO5)CC3)on2)cc1OC | -0.99 |
| CCN1C(=O)[C@H]2[C@@H](c3ccc(C(F)(F)F)cc3)N[C@]3(CCCN(Cc4ccc(Br)cc4)C3=O)[C@H]2C1=O | 2.63 |
| COc1ccc(N2CCN(CCNS(=O)(=O)c3ccc([N+](=O)[O-])cc3)CC2)cc1 | 5.38 |
| Cc1sc2nc(SCC(=O)c3ccc(O)c(O)c3)n(Cc3ccco3)c(=O)c2c1C | 15.9 |
| CN(CCO)c1cccc2c1S(=O)(=O)N(Cc1cn(Cc3ccc(C(F)(F)F)cc3)nn1)Cc1ccccc1O2 | -6.76 |
| C[C@H](C(=O)N(C)c1ccccc1)[C@@H](O)c1ccc2ccccc2c1 | -0.77 |
| COc1ccc(C(=O)OCCN(C)C2CN(Cc3cn(Cc4cccc(C)c4)nn3)S(=O)(=O)C2)cc1OC (stereo not drawn) | 2.95 |
| Cc1cc(O)ccc1-c1cc(C(=O)NCc2cc(C(F)(F)F)cc(C(F)(F)F)c2)[nH]n1 | 20.5 |
| O=C1[C@H]2[C@@H](c3ccc(C(F)(F)F)cc3)N[C@]3(CCCN(Cc4ccc(Cl)cc4)C3=O)[C@H]2C(=O)N1Cc1ccccc1 | 17.5 |
| CC(C)(C)c1ccc(CSc2nnc(-c3cccs3)o2)cc1 | -4.29 |
| O=C(CNCc1ccc(F)cc1)Nc1ccccc1-c1ccccc1 | 4.85 |
| O=C1[C@H]2[C@@H](c3ccc(C(F)(F)F)cc3)N[C@]3(CCCN(Cc4ccc(Br)cc4)C3=O)[C@H]2C(=O)N1Cc1ccccc1 | 36.9 |
| CCC(C(=O)OCC(=O)Nc1ccccc1-c1ccccc1)c1ccccc1 (stereo not drawn) | 20.3 |
| CCOc1ccccc1-c1cc(C(=O)N/N=C(\C)c2cccnc2)c2ccccc2n1 | 0.58 |
| CCOc1ccc(/C=N/NC(=O)C(C)Sc2ccccn2)cc1OCC (stereo not drawn) | -1 |
| O=C1CCC(C(=O)OCC(=O)Nc2ccc(OC(F)F)cc2)=NN1 | 5.49 |
| O=C(CSc1nnc(-c2ccccn2)n1-c1ccccc1)Nc1ccc2cn[nH]c2c1 | 1.78 |
| N#Cc1cccc(NC(=O)C2CCCN(C(=O)c3ccc(Cl)cc3)C2)c1 (stereo not drawn) | -3.16 |
| N#Cc1ccccc1OC[C@@H](O)CN1CCC(C(O)(c2ccccc2)c2ccccc2)CC1 | -0.66 |
| CCOc1cc(/C=N/NC(=O)c2cc(-c3ccccc3)nc3ccccc23)ccc1O | 22.1 |
| C#CCN(C[C@H]1[C@H](OC(=O)NC2CCCC2)[C@H](OC(=O)NC2CCCC2)C[C@H]2C(=O)N(c3ccccc3)C(=O)[C@@H]12)S(=O)(=O)c1ccc(C)cc1 | 29.4 |
